Values were extracted from patent US20240325555A1.

For each of the binders below, state its ADCC reporter Top (RFU).
Target: T1, human LIV-1 (human, UniProt Q13433 29-755)
T1 sequence (looked up): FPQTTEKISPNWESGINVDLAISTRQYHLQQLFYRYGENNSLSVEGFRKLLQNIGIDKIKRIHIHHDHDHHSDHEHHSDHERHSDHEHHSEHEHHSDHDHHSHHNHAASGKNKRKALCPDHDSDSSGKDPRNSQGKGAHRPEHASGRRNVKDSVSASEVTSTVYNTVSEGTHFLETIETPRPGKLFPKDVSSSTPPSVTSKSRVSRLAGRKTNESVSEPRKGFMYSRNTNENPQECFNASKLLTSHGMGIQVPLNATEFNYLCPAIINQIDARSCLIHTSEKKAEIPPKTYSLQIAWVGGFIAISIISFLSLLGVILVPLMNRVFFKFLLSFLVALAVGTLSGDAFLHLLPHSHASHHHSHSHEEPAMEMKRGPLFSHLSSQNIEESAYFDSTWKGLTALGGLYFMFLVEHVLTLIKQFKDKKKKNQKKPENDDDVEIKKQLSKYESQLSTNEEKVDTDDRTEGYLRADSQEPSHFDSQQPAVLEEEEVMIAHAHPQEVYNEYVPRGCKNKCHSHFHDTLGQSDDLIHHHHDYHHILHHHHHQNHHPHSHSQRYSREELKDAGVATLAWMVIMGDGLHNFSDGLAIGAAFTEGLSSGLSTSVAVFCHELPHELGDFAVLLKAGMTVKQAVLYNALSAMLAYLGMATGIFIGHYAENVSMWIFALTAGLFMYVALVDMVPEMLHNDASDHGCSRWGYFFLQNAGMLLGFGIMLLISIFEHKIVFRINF
Experiment: cell-based or functional assay
The answer should read as a number with its unit following.

59C12C8 (antibody, V domains shown, Tested as chimeric antibody) VH: EVQLQQSGAELVRSGASVKLSCTASDFNIEDYYIHWVKQRPEQGLEWIGWIDPENGDTEYAPKFQGKATMTADTSSNTAYLQLSSLTSEDTAVYYCPHGGGFRVFDYWGQGTTLTVSS VL: DVLMTQTPLSLPVSLGDQASISCRSSQRIVHSNGNTYLEWYLQKPGQSPKLLIYKVSNRFSGVPDRFSGSGSGTDFTLKISRVEAEDLGVYYCFQGSHVPWTFGGGTKLEIK; 36300 RFU

Kindly review the next binder as well.
## Input Bench note: what ADCC reporter Top (RFU) did 136F3D10C10 (antibody, V domains shown, Tested as chimeric antibody) VH: QVQLQQSGPELVKPGASVRIFCKASGYTFTSFHIHWVKQRPGQGLEWIGWIYPGNDNTDHNEKFKGKATLSADKSSSTVYMQLSSLTSEDSAVYFCGRSNYYGPLFAYWGQGTLVTVSA VL: DILMTQTPLSLPVSLGDQASISCRSSQNIVRSNGNTYLEWYLQKPGQSPKVLIYRVSNRFSGVPDRFSGSGSGTDFTLKISRVEAEDLGVYYCFQGSYVPYTFGGGTKLEIK show?
## Output 83900 RFU
